molecular target: M4 muscarinic receptor (Homo sapiens, UniProt P08173); construct: expressed in transfected cells; host or cells: CHO (M4-CHO); assay: Functional mobilization of intracellular calcium (FLIPR), M4-CHO cells; type: cell-based; settings: 100% efficacy is the maximum response obtained with the Carbachol control
Sequence (P08173 whole entry): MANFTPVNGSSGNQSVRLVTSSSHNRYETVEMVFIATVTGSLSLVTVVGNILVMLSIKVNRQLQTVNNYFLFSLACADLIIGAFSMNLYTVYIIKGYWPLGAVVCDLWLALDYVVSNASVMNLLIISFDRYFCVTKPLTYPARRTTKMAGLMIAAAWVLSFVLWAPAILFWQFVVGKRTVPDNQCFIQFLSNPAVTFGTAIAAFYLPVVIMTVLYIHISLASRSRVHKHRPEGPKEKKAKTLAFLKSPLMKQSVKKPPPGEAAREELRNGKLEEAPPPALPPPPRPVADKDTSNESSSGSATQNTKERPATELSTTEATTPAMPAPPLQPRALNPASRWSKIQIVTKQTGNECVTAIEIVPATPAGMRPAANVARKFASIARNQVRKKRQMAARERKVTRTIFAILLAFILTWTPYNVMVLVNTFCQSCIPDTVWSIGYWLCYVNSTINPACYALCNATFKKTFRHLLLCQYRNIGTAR
Recorded Emax by entry

- COMPOUND: "CN(C)C(=O)N1CCC2(CCN(C3CCN(c4nccs4)CC3)CC2)c2ccccc21"
  Emax: "< 25%"
- COMPOUND: "CN(C)C(=O)N1CCC2(CCN(C3CCN(c4cnccn4)CC3)CC2)c2ccccc21"
  Emax: "25 to 100%"
- COMPOUND: "CN(C)C(=O)N1CC2(CCN(C3CCC(c4ncns4)CC3)CC2)c2ccccc21 (centres unmarked)"
  Emax: "< 25%"
- COMPOUND: "CC#CCOC(=O)N1CCCC(N2CCC3(CC2)CN(C(=O)N(C)C)c2ccccc23)CC1 (centres unmarked)"
  Emax: "> 100%"

Now consider the entry below.
Form field: reported Emax of Cc1cncc(N2CCC(N3CCC4(CCN(C(=O)N(C)C)c5ccccc54)CC3)CC2)n1
25 to 100%

###

Here the recorded Emax is given for each entry.
target: M4 muscarinic receptor (Homo sapiens); construct: expressed in transfected cells; host or cells: CHO (M4-CHO); experiment: Functional mobilization of intracellular calcium (FLIPR), M4-CHO cells; assay type: cell-based; conditions: 100% efficacy is the maximum response obtained with the Carbachol control

Look over these answered cases.
- COMPOUND: "CCC#CCOC(=O)N1CCCC(N2CCC3(CC2)CN(C(=O)N(C)C)c2ccccc23)CC1 (stereo not shown)"
  TEST READOUT: "Emax"
  RESULT: "25 to 100%"
- COMPOUND: "CCc1nsc(N2CC[C@@H](CN3CCC4(CC3)CN(C(=O)N(C)C)c3ccccc34)C2)n1"
  TEST READOUT: "Emax"
  RESULT: "25 to 100%"

Look at this compound and give its reported Emax. CCOC(=O)N1CC[C@H](CN2CCC3(CC2)CN(C(=O)N(C)C)c2ccccc23)C1
25 to 100%

Query CN(C)C(=O)N1CCC2(CCN(C3CCN(c4nncs4)CC3)CC2)c2ccccc21 next
< 25%

Input CN(C)C(=O)N1CC2(CCN(C3(C)CCN(c4cnccn4)CC3)CC2)c2ccccc21
25 to 100%

Also CN(C)C(=O)N1CC2(CCN(C3CCCN(C(=O)OCC(F)F)CC3)CC2)c2ccccc21 (stereo not shown) ?
25 to 100%

Same again, this time with CCOC(=O)N1C2CCC1CC(N1CCC3(CC1)CN(C(=O)N(C)C)c1ccccc13)C2 (stereo not shown)
25 to 100%

Same lookup for Cc1csc(N2CCC(N3CCC4(CC3)CN(C(=O)N(C)C)c3ccccc34)CC2)n1 , please.
25 to 100%

Queued: CN(C)C(=O)N1CC2(CCN(C[C@H]3CCN(c4cnccn4)C3)CC2)c2ccccc21
> 100%

Next entry: CCOC(=O)N1C2CCC1CC(N1CCC3(CCN(C(C)=O)c4ccccc43)CC1)C2 (stereo not shown)
25 to 100%

Also need CCCOC(=O)N1CCCC(N2CCC3(CC2)CN(C(=O)N(C)C)c2ccccc23)CC1 (stereo not shown) , thanks.
25 to 100%

Input CCC#CCOC(=O)N1CC[C@@H](CN2CCC3(CC2)CN(C(=O)N(C)C)c2ccccc23)C1
> 100%

What would you report for CN(C)C(=O)N1CC2(CCN(C3CCN(c4nc5ccccc5s4)CC3)CC2)c2ccccc21 ?
< 25%

Another: CC#CCOC(=O)N1CC[C@@H](CN2CCC3(CC2)CN(C(=O)N(C)C)c2ccccc23)C1
25 to 100%

Another compound to check: Cc1nsc(N2CC[C@@H](CN3CCC4(CC3)CN(C(=O)N(C)C)c3ccccc34)C2)n1
> 100%

Can you handle C=Cc1cncc(N2CCC(N3CCC4(CC3)CN(C(=O)N(C)C)c3ccccc34)CC2)n1 next?
25 to 100%

Cited source: patent US8263605B2
